// Ki lookup, one value per entry
# systemTested: Oxytocin receptor (Homo sapiens, UniProt P30559)
# Sequence (P30559 whole entry): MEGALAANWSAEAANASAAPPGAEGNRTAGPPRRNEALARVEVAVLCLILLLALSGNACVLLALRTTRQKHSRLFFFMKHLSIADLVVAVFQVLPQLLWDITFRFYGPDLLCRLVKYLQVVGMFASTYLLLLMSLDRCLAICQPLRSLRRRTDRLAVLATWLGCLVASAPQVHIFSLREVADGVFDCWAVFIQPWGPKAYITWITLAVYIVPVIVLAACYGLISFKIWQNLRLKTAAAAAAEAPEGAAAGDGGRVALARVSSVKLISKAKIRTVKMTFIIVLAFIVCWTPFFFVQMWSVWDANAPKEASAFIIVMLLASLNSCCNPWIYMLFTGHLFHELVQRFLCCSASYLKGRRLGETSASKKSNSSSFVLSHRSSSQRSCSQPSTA
# assayMethodText: Binding affinity was evaluated by measuring the displacement of [3H]-OT (oxytocin) from specific binding sites in uterine tissue obtained from human.

smilesInput: CC(=O)NCCCOc1ccc(C(=O)N2CCC(N3C(=O)OCc4ccccc43)CC2)cc1
Ki [nM]: 130
//
smilesInput: CC(=O)NCCCOc1ccc(C(=O)N2CCC(N3C(=O)NCc4ccccc43)CC2)cc1
Ki [nM]: 2100
//
smilesInput: CC(=O)NCCCOc1ccc(C(=O)N2CCC(N3C(=O)CCc4ccccc43)CC2)cc1
Ki [nM]: 170

###

# systemTested: Vasopressin V2 receptor (Homo sapiens, UniProt P30518)
# Sequence (P30518 whole entry): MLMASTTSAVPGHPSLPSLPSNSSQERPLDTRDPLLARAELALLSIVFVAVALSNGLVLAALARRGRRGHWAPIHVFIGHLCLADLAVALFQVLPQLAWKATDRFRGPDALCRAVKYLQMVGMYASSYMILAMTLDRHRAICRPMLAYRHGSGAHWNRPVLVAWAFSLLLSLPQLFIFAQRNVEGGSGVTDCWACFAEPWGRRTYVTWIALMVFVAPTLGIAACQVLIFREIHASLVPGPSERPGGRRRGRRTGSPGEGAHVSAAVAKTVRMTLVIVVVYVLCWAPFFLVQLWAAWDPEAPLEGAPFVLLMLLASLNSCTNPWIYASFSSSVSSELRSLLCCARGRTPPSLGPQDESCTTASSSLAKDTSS
# assayMethodText: Binding affinity was evaluated by measuring the displacement of [3H]AVP (arginine vasopressin) from specific binding sites in kidney medulla obtained from early postmortem human donors.
# Assay type: tissue-based

smilesInput: CC(=O)NCCCOc1ccc(C(=O)N2CCC(N3C(=O)CCc4ccccc43)CC2)cc1
Ki: > 81 µM

###

# systemTested: Vasopressin V1a receptor (Rattus norvegicus, UniProt P30560)
# Sequence (P30560 whole entry): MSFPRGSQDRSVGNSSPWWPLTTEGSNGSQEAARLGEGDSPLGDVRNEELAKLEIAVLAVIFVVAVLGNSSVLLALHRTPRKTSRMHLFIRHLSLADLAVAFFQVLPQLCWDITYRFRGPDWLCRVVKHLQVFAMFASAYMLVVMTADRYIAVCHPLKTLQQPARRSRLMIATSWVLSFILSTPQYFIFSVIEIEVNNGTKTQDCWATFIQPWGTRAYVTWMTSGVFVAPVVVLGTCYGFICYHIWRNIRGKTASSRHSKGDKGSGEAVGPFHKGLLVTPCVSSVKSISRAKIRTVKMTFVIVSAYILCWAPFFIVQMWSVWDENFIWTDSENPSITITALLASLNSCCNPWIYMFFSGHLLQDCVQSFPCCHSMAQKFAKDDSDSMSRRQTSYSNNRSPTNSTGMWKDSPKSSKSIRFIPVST
# assayMethodText: Binding affinity was evaluated by measuring the displacement of [3H]AVP (arginine vasopressin) from specific binding sites in rat liver
// Ki lookup, one value per entry

molecule: CC(=O)N1CCC(Oc2ccc(C(=O)N3CCC(N4C(=O)OCc5ccccc54)CC3)cc2)CC1
Ki (nM): 5.6
--
molecule: CC(=O)N1CCCCC1CCOc1ccc(C(=O)N2CCC(N3C(=O)OCc4ccccc43)CC2)cc1 (centres undefined)
Ki (nM): 15
--
molecule: CC(=O)N1CCCC(COc2ccc(C(=O)N3CCC(N4C(=O)OCc5ccccc54)CC3)cc2)C1 (centres undefined)
Ki (nM): 24
--
molecule: COc1cc(OC2CCN(C(C)=O)CC2)ccc1C(=O)N1CCC(N2C(=O)OCc3ccccc32)CC1
Ki (nM): 3.7

###

# systemTested: Oxytocin receptor (Rattus norvegicus, UniProt P70536)
# Sequence (P70536 whole entry): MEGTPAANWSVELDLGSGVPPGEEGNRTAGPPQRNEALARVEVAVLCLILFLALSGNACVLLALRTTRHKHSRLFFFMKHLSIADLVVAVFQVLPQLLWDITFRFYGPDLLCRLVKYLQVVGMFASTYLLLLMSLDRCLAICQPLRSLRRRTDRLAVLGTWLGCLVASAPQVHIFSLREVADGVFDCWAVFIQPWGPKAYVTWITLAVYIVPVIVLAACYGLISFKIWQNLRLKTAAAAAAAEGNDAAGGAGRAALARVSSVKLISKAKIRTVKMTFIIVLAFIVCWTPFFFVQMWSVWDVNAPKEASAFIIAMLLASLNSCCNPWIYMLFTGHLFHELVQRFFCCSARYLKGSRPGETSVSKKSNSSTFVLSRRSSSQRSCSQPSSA
reportedMetric: Ki (nM)

compound: CC(=O)NCCCOc1ccc(C(=O)N2CCC(N3C(=O)NCc4ccccc43)CC2)cc1
valueMeasured: 2400
--
compound: CC(=O)NCCCOc1ccc(C(=O)N2CCC(N3C(=O)CCc4ccccc43)CC2)cc1
valueMeasured: 230
--
compound: CC(=O)N1CCCC(COc2ccc(C(=O)N3CCC(N4C(=O)OCc5ccccc54)CC3)cc2)C1 (stereo not given)
valueMeasured: 340
--
compound: CC(=O)NCCCOc1ccc(C(=O)N2CCC(N3C(=O)OCc4ccccc43)CC2)cc1
valueMeasured: 200
--
compound: CC(=O)N1CCC(Oc2ccc(C(=O)N3CCC(N4C(=O)OCc5ccccc54)CC3)cc2)CC1
valueMeasured: 69

###

// pKi lookup, one value per entry
# systemTested: Oxytocin receptor (Homo sapiens)
# assayMethodText: Binding affinity was evaluated by measuring the displacement of [3H]OT (oxytocin) from specific binding sites in uterine tissue obtained from human
pKi: −log10 of the molar value.

compound: CC(=O)N1CCCCC1CCOc1ccc(C(=O)N2CCC(N3C(=O)OCc4ccccc43)CC2)cc1 (centres undefined)
pKi: 6.82
//
compound: CC(=O)N1CCCC(COc2ccc(C(=O)N3CCC(N4C(=O)OCc5ccccc54)CC3)cc2)C1 (centres undefined)
pKi: 6.70
//
compound: COc1cc(OC2CCN(C(C)=O)CC2)ccc1C(=O)N1CCC(N2C(=O)OCc3ccccc32)CC1
pKi: 8.34
//
compound: CC(=O)N1CCC(Oc2ccc(C(=O)N3CCC(N4C(=O)OCc5ccccc54)CC3)cc2)CC1
pKi: 7.62

###

# systemTested: Vasopressin V1a receptor (Homo sapiens)
# Sequence (P37288 whole entry): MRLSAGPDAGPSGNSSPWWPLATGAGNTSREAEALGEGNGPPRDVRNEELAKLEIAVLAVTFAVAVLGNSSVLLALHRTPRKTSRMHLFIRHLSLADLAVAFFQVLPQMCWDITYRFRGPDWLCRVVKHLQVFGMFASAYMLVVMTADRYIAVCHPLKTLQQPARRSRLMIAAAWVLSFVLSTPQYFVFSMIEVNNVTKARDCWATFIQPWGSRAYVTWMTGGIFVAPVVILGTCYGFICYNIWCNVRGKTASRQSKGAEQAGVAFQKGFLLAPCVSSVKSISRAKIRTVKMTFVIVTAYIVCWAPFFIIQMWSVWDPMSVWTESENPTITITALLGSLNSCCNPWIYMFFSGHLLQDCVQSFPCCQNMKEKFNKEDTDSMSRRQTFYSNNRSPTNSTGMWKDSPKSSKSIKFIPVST
# assayMethodText: Binding affinity was evaluated by measuring the displacement of [3H]AVP (arginine vasopressin) from specific binding sites in human platelets
reportedMetric: Ki (µM)

molecule: CC(=O)N1CCCCC1CCOc1ccc(C(=O)N2CCC(N3C(=O)OCc4ccccc43)CC2)cc1 (centres undefined)
reportedMetric: Ki
unit: µM
valueMeasured: 22
//
molecule: CC(=O)N1CCCC(COc2ccc(C(=O)N3CCC(N4C(=O)OCc5ccccc54)CC3)cc2)C1 (centres undefined)
reportedMetric: Ki
unit: µM
valueMeasured: 38
//
molecule: CC(=O)N1CCC(Oc2ccc(C(=O)N3CCC(N4C(=O)OCc5ccccc54)CC3)cc2)CC1
reportedMetric: Ki
unit: µM
valueMeasured: 12
//
molecule: COc1cc(OC2CCN(C(C)=O)CC2)ccc1C(=O)N1CCC(N2C(=O)OCc3ccccc32)CC1
reportedMetric: Ki
unit: µM
valueMeasured: 3.2

###

// Ki lookup, one value per entry
# systemTested: Vasopressin V2 receptor (Rattus norvegicus, UniProt Q00788)
# Sequence (Q00788 whole entry): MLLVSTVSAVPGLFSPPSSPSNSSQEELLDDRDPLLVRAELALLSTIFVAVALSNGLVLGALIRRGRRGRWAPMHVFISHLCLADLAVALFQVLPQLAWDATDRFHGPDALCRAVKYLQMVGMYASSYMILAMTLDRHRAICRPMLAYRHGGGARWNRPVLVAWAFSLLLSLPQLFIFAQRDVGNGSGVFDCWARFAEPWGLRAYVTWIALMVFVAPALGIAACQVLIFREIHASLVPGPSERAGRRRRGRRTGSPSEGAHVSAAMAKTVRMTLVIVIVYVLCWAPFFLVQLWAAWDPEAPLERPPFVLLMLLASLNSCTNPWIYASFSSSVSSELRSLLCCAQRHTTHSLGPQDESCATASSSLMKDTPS
# assayMethodText: Binding affinity was evaluated by measuring the displacement of [3H]-AVP (arginine vasopressin) from specific binding sites in kidney medulla obtained from rats
# Format: tissue-based
reportedMetric: Ki

compound: CC(=O)N1CCC(Oc2ccc(C(=O)N3CCC(N4C(=O)OCc5ccccc54)CC3)cc2)CC1
valueMeasured: 35 µM

compound: CC(=O)N1CCCC(COc2ccc(C(=O)N3CCC(N4C(=O)OCc5ccccc54)CC3)cc2)C1 (centres undefined)
valueMeasured: 11 µM

compound: CC(=O)N1CCCCC1CCOc1ccc(C(=O)N2CCC(N3C(=O)OCc4ccccc43)CC2)cc1 (centres undefined)
valueMeasured: 11 µM

compound: COc1cc(OC2CCN(C(C)=O)CC2)ccc1C(=O)N1CCC(N2C(=O)OCc3ccccc32)CC1
valueMeasured: > 30 µM

Origin of the recorded values: ChEMBL document CHEMBL1128191
